Examples of molecules with documented pEC50 follow.
# measured.target: UniProtKB P34972
# Sequence (P34972 whole entry): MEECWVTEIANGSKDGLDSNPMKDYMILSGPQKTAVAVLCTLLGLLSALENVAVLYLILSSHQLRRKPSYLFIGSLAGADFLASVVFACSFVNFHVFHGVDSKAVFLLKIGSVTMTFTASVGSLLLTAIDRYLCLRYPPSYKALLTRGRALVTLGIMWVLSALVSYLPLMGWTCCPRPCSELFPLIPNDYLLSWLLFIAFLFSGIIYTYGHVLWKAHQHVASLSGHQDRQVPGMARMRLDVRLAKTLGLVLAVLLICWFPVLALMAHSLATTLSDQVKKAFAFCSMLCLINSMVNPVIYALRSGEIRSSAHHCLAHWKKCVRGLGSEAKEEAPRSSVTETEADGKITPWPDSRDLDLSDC
# test.summary: Cannabinoid CB2 receptor agonist activity, yeast reporter assay
# stated.conditions: yeast (Saccharomyces cerevisiae) cells expressing human CB2; agonist; read-out: EC50 at the cloned human cannabinoid CB2 receptor
pEC50: −log10 of the molar value. Structures can show the parent of a compound that is named as a salt.

Reference set (3 entries):
CC(C)c1nc(Nc2cccc(Cl)c2)ncc1C(=O)NCC1CCOCC1; > 6.52
CCc1nc(Nc2cccc(Cl)c2)ncc1C(=O)NCC1CCCCC1; > 6.52
CC(c1nc(Nc2cccc(Cl)c2)ncc1C(=O)NCC1CCOCC1)N(C)C (centres unmarked) [Example 5, hydrochloride]; < 6.00

**Query** Requested field: pEC50. Item: CC(C)c1nc(Nc2cccc(Cl)c2)ncc1C(=O)NCC1CCCCC1
**Result** > 6.52

**Query** Bench note: what pEC50 did CCc1nc(Nc2cccc(Cl)c2)ncc1C(=O)NCC1CCOCC1 show?
**Result** 6.00 to 6.52
